Task for the reader: assign each of the following molecules its reported Km.
# Test system: Pseudomonas sp.
# Procedure Text: Activity of Pseudomonas sp. carboxypeptidase G2 assessed as compound hydrolysis by Michaelis-Menten plot analysis

[Q] What Km value was documented for this molecule, CN(C(=O)OCc1ccc(NC(=O)N[C@@H](CCC(=O)O)C(=O)O)cc1)c1ccc(N(CCCl)CCCl)cc1 ?
[A] 6.1 µM

[Q] Request: O=C(O)CC[C@H](NC(=O)Nc1ccc(N(CCCl)CCCl)cc1)C(=O)O
[A] 3 µM

[Q] Request: CN(/N=N/c1ccc(C#N)cc1)C(=O)N[C@@H](CCC(=O)O)C(=O)O
[A] 17.7 µM

[Q] Request: CCOC(=O)c1ccc(/N=N/N(C)C(=O)N[C@@H](CCC(=O)O)C(=O)O)cc1
[A] 2.73 µM

====

# Procedure Text: Protein binding in human plasma
# Assay type: ADME, cell-free
# Test Parameters: read-out: PPB (converted)
Endpoint: fraction unbound
Answer as a number with no unit attached.

[Q] What fraction unbound value was documented for this compound, O=C(O)CC[C@H](NC(=O)c1ccc(N(CCCl)CCCl)cc1)C(=O)O ?
[A] 0.08

====

Task for the reader: assign each of the following molecules its reported half-life.
# Procedure Text: Half life in phosphate buffered saline at pH 7.4
# Format: physicochemical
Give the value, in units of h, as a plain number.

[Q] What half-life value was documented for this molecule, Cc1ccc(/N=N/N(C)C(=O)N[C@@H](CCC(=O)O)C(=O)O)cc1 ?
[A] 7.63

[Q] Request: CCOC(=O)c1ccc(/N=N/N(C)C(=O)N[C@@H](CCC(=O)OC)C(=O)OC)cc1
[A] 102

[Q] Request: CN(/N=N/c1ccc(C#N)cc1)C(=O)N[C@@H](CCC(=O)O)C(=O)O
[A] 2.17

====

# Procedure Text: Half life in phosphate buffered saline at pH 7.4
# Format: physicochemical
Task for the reader: assign each of the following molecules its reported half-life.

[Q] What half-life value was documented for this molecule, CN(C(=O)OCc1ccc(NC(=O)N[C@@H](CCC(=O)O)C(=O)O)cc1)c1ccc(N(CCBr)CCBr)cc1 ?
[A] < 4 min

[Q] Request: CN(/N=N/c1ccc(C(N)=O)cc1)C(=O)N[C@@H](CCC(=O)O)C(=O)O
[A] 6.4 min

[Q] Request: O=C(O)CC[C@H](NC(=O)Nc1ccc(COC(=O)Nc2ccc(N(CCI)CCI)cc2N(CCI)CCI)cc1)C(=O)O
[A] < 4 min

[Q] Request: O=C(O)CC[C@H](NC(=O)Nc1ccc(N(CCCl)CCCl)cc1)C(=O)O
[A] 16.8 min

[Q] Request: CCOC(=O)c1ccc(/N=N/N(C)C(=O)N[C@@H](CCC(=O)O)C(=O)O)cc1
[A] 173 min

[Q] Request: CN(/N=N/c1ccc(Br)cc1)C(=O)N[C@@H](CCC(=O)O)C(=O)O
[A] 220 min

[Q] Request: Cc1cc(NC(=O)Nc2ccc(N(CCCl)CCCl)cc2)c2ccccc2n1
[A] 990 min

[Q] Request: O=C(O)CC[C@H](NC(=O)Nc1ccc(N(CCCl)CCCl)c(Cl)c1)C(=O)O
[A] < 17 min

[Q] Request: O=C(O)CC[C@H](NC(=O)Nc1ccc(N(CCCl)CCCl)c(F)c1)C(=O)O
[A] < 17 min

[Q] Request: CC(=O)c1ccc(/N=N/N(C)C(=O)N[C@@H](CCC(=O)O)C(=O)O)cc1
[A] 2.6 min
